Could you please report measured BODIPY-LDL uptake by HepG2 cells, fluorescence, 66.7 nM, replicate 1 for the items listed next?
Biological target: human PCSK9 (PCSK9 antigen, SEQ ID NO. 53) (human, UniProt A8T644 31-152; Q8NBP7 153-692, Biotin-labelled on amines in the MSD-SET and sorting experiments; positions not given.)
Assay: cell-based or functional assay
Numbers only.

Study these solved cases before continuing.
# binder, experimental.result
data = [
    ("Evolocumab (antibody, V domains shown) VH: QVQLVQSGAEVKKPGASVKVSCKASGYTLTSYGISWVRQAPGQGLEWMGWVSFYNGNTNYAQKLQGRGTMTTDPSTSTAYMELRSLRSDDTAVYYCARGYGMDVWGQGTTVTVSS VL: QSALTQPASVSGSPGQSITISCTGTSSDVGGYNSVSWYQQHPGKAPKLMIYEVSNRPSGVSNRFSGSKSGNTASLTISGLQAEDEADYYCNSYTSTSMVFGGGTKLTVL", 0.724),
    ("ADI-10085 (antibody, human IgG2, kappa, V domains shown, IgG) VH: QLQLQESGPGLVKPSETLSLTCTVSGGSIVSSSYYWAWIRQPPGKGLEWIGSINYKGSTYYNPSLKSRVTISVDTSKNQFSLKLSSVTAADTAVYYCARENSGVVPAAGPNWFGPWGQGTLVTVSS VL: EIVLTQSPATLSLSPGERATLSCRASQSVSSYLAWYQQKPGQAPRLLIYDASNRATGIPARFSGSGSGTDFTLTISSLEPEDFAVYYCQQRRNWFTFGGGTKVEIKR", 0.749),
]

Could you tell me which BODIPY-LDL uptake by HepG2 cells, fluorescence, 66.7 nM, replicate 1 is on file for ADI-10089 (antibody, human IgG2, kappa, V domains shown, IgG) VH: QLQLQESGPGLVKPSETLSLTCTVSGGSIGSSSYYWTWIRQPPGKGLEWIGSINYRGSTYYNPSLKSRVTISVDTSKNQFSLKLSSVTAADTAVYYCARENSGVVPAAGPNWFDPWGQGTLVTVSS VL: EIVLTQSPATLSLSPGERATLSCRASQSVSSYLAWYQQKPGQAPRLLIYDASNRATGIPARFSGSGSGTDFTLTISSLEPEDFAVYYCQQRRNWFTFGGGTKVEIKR ?
0.774

Taken from patent US20200087416A1.
